Each record here notes measured logFC.
Target: protein kinases (human kinome) (Homo sapiens)
Assay type: cell-based
Conditions: ABL2 (P42684) protein abundance, degrader vs DMSO; down
Lab note: record the figure alone, no unit after it.

Known results for compounds:
[[record]]
compound = "CC(C)S(=O)(=O)c1ccccc1Nc1nc(Nc2ccc(N3CCN(CCOCCOCCNC(=O)CNc4cccc5c4C(=O)N(C4CCC(=O)NC4=O)C5=O)CC3)cc2)ncc1Cl (stereo not drawn) [TL12.186]"
val = "−0.803"

[[record]]
compound = "Cc1nc(Nc2ncc(C(=O)Nc3c(C)cccc3Cl)s2)cc(N2CCN(CC(=O)NCCCCNC(=O)COc3cccc4c3C(=O)N(C3CCC(=O)NC3=O)C4=O)CC2)n1 (stereo not drawn) [DB.3.291]"
val = "−0.3739"


Now turn to the next compound.
Which logFC value belongs to Nc1ncnc2c1c(-c1ccc(Oc3ccccc3)cc1)nn2[C@H]1CC[C@H](N2CCN(CCOCCNC(=O)CNc3cccc4c3C(=O)N(C3CCC(=O)NC3=O)C4=O)CC2)CC1 (stereo partly drawn) [SB1.G.181] ? −2.405

----------
Target: protein kinases (human kinome)
Format: cell-based
Details: kinases significantly downregulated vs DMSO (fold change cutoff −1.25, P-value<0.01); ≤8 h, 0.1-5 μM degrader; 7 cell lines
metric: Kinase hits

[[record]]
compound = "Cc1c(NC(=O)c2ccc(C(C)(C)C)cc2)cccc1-c1cn(C)c(=O)c(Nc2ccc(C(=O)N3CCN(CCCCCCNC(=O)CNc4cccc5c4C(=O)N(C4CCC(=O)NC4=O)C5=O)CC3)cc2)n1 (stereo not shown)"
val = "BTK"


----------
Molecular target: protein kinases (human kinome) (Homo sapiens)
Type: cell-based
Conditions: ABL2 (P42684) protein abundance, degrader vs DMSO; down
# cutoff -2 applies to logFC; >= gives Satisfied, < gives Not satisfied

[[record]]
molecule = "CC(C)S(=O)(=O)c1ccccc1Nc1nc(Nc2ccc(N3CCN(CCOCCOCCC(=O)NCCNc4cccc5c4CN(C4CCC(=O)NC4=O)C5=O)CC3)cc2)ncc1Cl (centres unmarked) [TL13.97]"
assignedlabel = "Satisfied"

[[record]]
molecule = "Nc1ncnc2c1c(-c1ccc(Oc3ccccc3)cc1)nn2[C@H]1CC[C@H](N2CCN(CCCCCCNC(=O)COc3cccc4c3C(=O)N(C3CCC(=O)NC3=O)C4=O)CC2)CC1 (some centres unmarked) [SB1.G.200]"
assignedlabel = "Not satisfied"

[[record]]
molecule = "CC(C)S(=O)(=O)c1ccccc1Nc1nc(Nc2ccc(N3CCN(CCOCCNC(=O)CNc4ccc5c(c4)C(=O)N(C4CCC(=O)NC4=O)C5=O)CC3)cc2)ncc1Cl (centres unmarked) [SK.3.93]"
assignedlabel = "Satisfied"


Entry Cn1c(=O)c(-c2c(Cl)cccc2Cl)cc2cnc(Nc3ccc(OCCNC(=O)CCCCCCNC(=O)COc4cccc5c4C(=O)N(C4CCC(=O)NC4=O)C5=O)cc3)nc21 (centres unmarked) [SB1.G.192.1] : is its logFC no less than -2? Not satisfied

Entry Cc1ccc(NC(=O)c2cccc(C(F)(F)F)c2)cc1N1Cc2cnc(Nc3ccc(N4CCN(CCCCC(=O)N[C@H](C(=O)N5C[C@H](O)C[C@H]5C(=O)N[C@@H](C)c5ccc(-c6scnc6C)cc5)C(C)(C)C)CC4)nc3)nc2N(C)C1=O [DB1113] : is its logFC no less than -2? Satisfied

----------
Biological target: protein kinases (human kinome) (Homo sapiens)
Type: cell-based
Conditions: Experiment wp016; down
Each record here notes measured logFC of BLK (P51451).
Lab note: record the figure alone, no unit after it.

Known results for compounds:
[[record]]
compound = "CC(C)S(=O)(=O)c1ccccc1Nc1nc(Nc2ccc(N3CCN(CCOCCOCCNC(=O)CNc4cccc5c4C(=O)N(C4CCC(=O)NC4=O)C5=O)CC3)cc2)ncc1Cl (stereo not drawn)"
targetentity = "protein kinases (human kinome) (Homo sapiens)"
val = "−1.475"

[[record]]
compound = "CC(C)S(=O)(=O)c1ccccc1Nc1nc(Nc2ccc(N3CCN(CCOCCNC(=O)CNc4cccc5c4C(=O)N(C4CCC(=O)NC4=O)C5=O)CC3)cc2)ncc1Cl (stereo not drawn)"
targetentity = "protein kinases (human kinome) (Homo sapiens)"
val = "−1.446"


Lab note: need logFC of BLK (P51451) for CC(C)S(=O)(=O)c1ccccc1Nc1nc(Nc2ccc(N3CCN(CCOCCNC(=O)CNc4ccc5c(c4)C(=O)N(C4CCC(=O)NC4=O)C5=O)CC3)cc2)ncc1Cl (stereo not drawn) on protein kinases (human kinome) (Homo sapiens), anyone have it? −1.502

----------
Target: protein kinases (human kinome) (Homo sapiens)
Assay type: cell-based
Details: Accession Q00537; experiment wp016
Each record here notes measured logFC of CDK17.

[[record]]
molecule = "CC(C)S(=O)(=O)c1ccccc1Nc1nc(Nc2ccc(N3CCN(CCOCCNC(=O)CNc4cccc5c4C(=O)N(C4CCC(=O)NC4=O)C5=O)CC3)cc2)ncc1Cl (stereo not drawn)"
val = "−0.7341"

[[record]]
molecule = "CC(C)S(=O)(=O)c1ccccc1Nc1nc(Nc2ccc(N3CCN(CCOCCNC(=O)CNc4ccc5c(c4)C(=O)N(C4CCC(=O)NC4=O)C5=O)CC3)cc2)ncc1Cl (stereo not drawn)"
val = "−0.7103"

[[record]]
molecule = "CC(C)S(=O)(=O)c1ccccc1Nc1nc(Nc2ccc(N3CCN(CCOCCOCCNC(=O)CNc4cccc5c4C(=O)N(C4CCC(=O)NC4=O)C5=O)CC3)cc2)ncc1Cl (stereo not drawn)"
val = "−0.84"

[[record]]
molecule = "CC(C)S(=O)(=O)c1ccccc1Nc1nc(Nc2ccc(N3CCN(CCOCCOCCOCCNC(=O)CNc4cccc5c4C(=O)N(C4CCC(=O)NC4=O)C5=O)CC3)cc2)ncc1Cl (stereo not drawn)"
val = "−0.6139"

[[record]]
molecule = "CC(C)S(=O)(=O)c1ccccc1Nc1nc(Nc2ccc(N3CCN(CCOCCOCCNC(=O)CNc4ccc5c(c4)C(=O)N(C4CCC(=O)NC4=O)C5=O)CC3)cc2)ncc1Cl (stereo not drawn)"
val = "−0.7544"


Which logFC of CDK17 value belongs to CC(C)S(=O)(=O)c1ccccc1Nc1nc(Nc2ccc(N3CCN(CCOCCOCCOCCNC(=O)CNc4ccc5c(c4)C(=O)N(C4CCC(=O)NC4=O)C5=O)CC3)cc2)ncc1Cl (stereo not drawn) ? −0.6057

----------
Molecular target: UniProtKB P45984
Sequence (P45984 whole entry): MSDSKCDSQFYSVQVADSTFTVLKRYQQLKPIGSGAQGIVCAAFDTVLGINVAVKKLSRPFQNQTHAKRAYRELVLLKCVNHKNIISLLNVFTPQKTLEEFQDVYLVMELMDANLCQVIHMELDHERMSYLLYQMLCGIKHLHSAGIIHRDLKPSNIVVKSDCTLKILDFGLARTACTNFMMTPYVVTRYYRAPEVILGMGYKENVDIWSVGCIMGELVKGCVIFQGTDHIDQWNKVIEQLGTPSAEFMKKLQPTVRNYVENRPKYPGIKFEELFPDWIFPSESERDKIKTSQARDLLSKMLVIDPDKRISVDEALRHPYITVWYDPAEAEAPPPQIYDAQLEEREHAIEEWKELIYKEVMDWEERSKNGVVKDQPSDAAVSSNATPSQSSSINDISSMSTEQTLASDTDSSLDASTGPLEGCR
Type: cell-based
Conditions: MAPK9 P45984-1; experiment wp146
metric: logFC
Lab note: record the figure alone, no unit after it.

Known results for compounds:
[[record]]
compound = "NC(=O)c1c(F)cccc1Nc1nc(Nc2ccc(S(=O)(=O)NCCOCCOCCOCCOCCNc3cccc4c3C(=O)N(C3CCC(=O)NC3=O)C4=O)cc2)ncc1Br (stereo not shown)"
metric = "logFC"
val = "−1.518"

[[record]]
compound = "NC(=O)c1c(F)cccc1Nc1nc(NC2CCN(S(=O)(=O)CCNC(=O)CCCCCCCCOc3cccc4c3C(=O)N(C3CCC(=O)NC3=O)C4=O)CC2)ncc1Br (stereo not shown)"
metric = "logFC"
val = "−3.32"

[[record]]
compound = "Cc1cc(S(=O)(=O)NCCOCCOCCOCCOCCNc2cccc3c2C(=O)N(C2CCC(=O)NC2=O)C3=O)ccc1Nc1ncc(Br)c(Nc2cccc(F)c2C(N)=O)n1 (stereo not shown)"
metric = "logFC"
val = "−1.091"


Which logFC value belongs to Cc1cc(Nc2ncc(Br)c(Nc3cccc(F)c3C(N)=O)n2)ccc1S(=O)(=O)NCCOCCOCCOCCOCCNc1cccc2c1C(=O)N(C1CCC(=O)NC1=O)C2=O (stereo not shown) ? −1.031

----------
Each record here notes measured logFC CDK1.
Target: protein kinases (human kinome) (Homo sapiens)
Assay type: cell-based
Conditions: CDK1 P06493; experiment wp146
Description: Although development of targeted protein degraders requires a POI binder, among already-liganded proteins such as kinases, it was hypothesized that different targets would have a different propensity for current approaches to degrader-mediated destruction, which was termed ‘degradability’. […]

Known results for molecules:
[[record]]
molecule = "NC(=O)c1c(F)cccc1Nc1nc(NC2CCN(S(=O)(=O)CCNC(=O)CCCCCCCCOc3cccc4c3C(=O)N(C3CCC(=O)NC3=O)C4=O)CC2)ncc1Br (stereo not shown)"
targetentity = "protein kinases (human kinome) (Homo sapiens)"
val = "−1.423"

[[record]]
molecule = "Cc1cc(Nc2ncc(Br)c(Nc3cccc(F)c3C(N)=O)n2)ccc1S(=O)(=O)NCCOCCOCCOCCOCCNc1cccc2c1C(=O)N(C1CCC(=O)NC1=O)C2=O (stereo not shown)"
targetentity = "protein kinases (human kinome) (Homo sapiens)"
val = "−1.629"

[[record]]
molecule = "NC(=O)c1c(F)cccc1Nc1nc(Nc2ccc(S(=O)(=O)NCCOCCOCCOCCOCCNc3cccc4c3C(=O)N(C3CCC(=O)NC3=O)C4=O)cc2)ncc1Br (stereo not shown)"
targetentity = "protein kinases (human kinome) (Homo sapiens)"
val = "−1.641"


Now turn to the next molecule.
Which logFC CDK1 value belongs to Cc1cc(S(=O)(=O)NCCOCCOCCOCCOCCNc2cccc3c2C(=O)N(C2CCC(=O)NC2=O)C3=O)ccc1Nc1ncc(Br)c(Nc2cccc(F)c2C(N)=O)n1 (stereo not shown) ? −1.302
